assay_comment: Pharmacokinetic test in Beagle dogs, oral capsules
Type: in vivo
setup_conditions: dog, plasma, male Beagle dogs, 5 mg/kg orally
assay_metric: Tmax (h)
Use h as the unit, but write only the number.

Could you tell me which Tmax is on file for O=C(O)c1ccc2c(c1)Oc1ccc(OCc3c(-c4c(Cl)cccc4Cl)noc3C3CC3)nc1C1(CC1)C2 [The amorphous form] ?
2

----------
assay_comment: Pharmacokinetic test in Beagle dogs, oral capsules
Type: in vivo
setup_conditions: dog, plasma, male Beagle dogs, 5 mg/kg orally
assay_metric: AUC(0-t) (ng·h/mL)
Use ng·h/mL as the unit, but write only the number.

Could you tell me which AUC(0-t) is on file for O=C(O)c1ccc2c(c1)Oc1ccc(OCc3c(-c4c(Cl)cccc4Cl)noc3C3CC3)nc1C1(CC1)C2 [The amorphous form] ?
765
